ASSAY_SYSTEM: rat CYP3A2, Cyp3a2 (gene 266682)
EXPERIMENTAL_DETAILS: NVS_ADME_rCYP3A2: NovaScreen (NVS) CYP450-related Enzyme Activity (ADME) Assay for rat CYP3A2 (AID 2283128)
The source made the active and inactive calls. The calls were made as follows: active = hit-call score of the fitted dose curve at least 0.9, where 1 is the maximum; inconclusive = response in the unintended direction; inactive = score below 0.9.
QUANTITY_NAME: AC50

Please review the following examples before continuing.
COP(=S)(OC)Oc1ccc([N+](=O)[O-])c(C)c1 : 4290 nM (active)
COP(=S)(OC)SCn1nnc2ccccc2c1=O : 393 nM (active)
CCN(CC)C(=O)C(C)Oc1cccc2ccccc12 (stereo unspecified) : 5340 nM (active)
CO/N=C(/C1=NOCCO1)c1ccccc1Oc1ncnc(Oc2ccccc2Cl)c1F : 1180 nM (active)
CCNP(=S)(OC)O/C(C)=C/C(=O)OC(C)C (stereo unspecified) : 528 nM (active)

For the next question, use this compound.
Query AC50 for COC(=O)NC(=S)Nc1ccccc1NC(=S)NC(=O)OC
7250 nM (active)

====

EXPERIMENTAL_DETAILS: CCTE_Shafer_MEA_acute_network_burst_percentage: CCTE's Neural Acute Assay for Percentage of Network Bursts, Shafer Lab (AID 2284022);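 also: curves fitted for loss so actives lower network burst percentage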
Active and inactive are the calls of the source. The calls were made as follows: active = hit-call score of the fitted dose curve at least 0.9, where 1 is the maximum; inactive = score below 0.9.
A correct response names exactly one class from active, inactive

Answered examples (5):
CC(C)=CC1C(C(=O)OCc2coc(Cc3ccccc3)c2)C1(C)C (stereo unspecified) : inactive
CCOc1nc(F)cc2nc(S(=O)(=O)Nc3c(Cl)cccc3Cl)nn12 : inactive
Nc1c(Cl)c(F)nc(OCC(=O)O)c1Cl : inactive
O=C(Nc1ccccc1-c1ccc(Cl)cc1)c1cccnc1Cl : inactive
COC(=O)N(C(=O)N1CO[C@@]2(C(=O)OC)Cc3cc(Cl)ccc3C2=N1)c1ccc(OC(F)(F)F)cc1 : inactive

GET /call?item= CCOC(=O)C(C)OC(=O)c1cc(Oc2ccc(C(F)(F)F)cc2Cl)ccc1[N+](=O)[O-] (stereo unspecified) returns the recorded outcome of this test.
inactive

GET /call?item= COP(=S)(OC)SCn1nnc2ccccc2c1=O returns the recorded outcome of this test.
inactive

GET /call?item= OC(c1ccc(Cl)cc1)(c1ccc(Cl)cc1)C(Cl)(Cl)Cl returns the recorded outcome of this test.
active

====

ASSAY_SYSTEM: Norway rat Vesicular Monoamine Transporter (VMAT2), neurotransmitter transporter, Slc18a2 (gene 25549) (UniProt Q01827)
Sequence (Q01827 whole entry, looked up): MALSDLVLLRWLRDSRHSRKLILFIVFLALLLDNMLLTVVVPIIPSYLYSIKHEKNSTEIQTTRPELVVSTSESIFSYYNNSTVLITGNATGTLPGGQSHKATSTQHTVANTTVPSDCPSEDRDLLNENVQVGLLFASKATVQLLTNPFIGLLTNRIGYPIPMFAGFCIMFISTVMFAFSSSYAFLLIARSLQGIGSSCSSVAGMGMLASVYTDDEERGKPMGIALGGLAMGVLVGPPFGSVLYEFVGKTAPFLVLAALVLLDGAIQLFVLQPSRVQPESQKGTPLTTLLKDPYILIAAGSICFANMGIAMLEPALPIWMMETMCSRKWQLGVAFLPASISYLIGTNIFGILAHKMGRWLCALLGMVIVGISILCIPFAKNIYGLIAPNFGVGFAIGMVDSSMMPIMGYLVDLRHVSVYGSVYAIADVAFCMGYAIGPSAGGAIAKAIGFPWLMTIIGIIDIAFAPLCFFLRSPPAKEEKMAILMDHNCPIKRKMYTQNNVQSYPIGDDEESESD
EXPERIMENTAL_DETAILS: NVS_TR_rVMAT2: NovaScreen (NVS) Transporter Assay for Norway rat Vesicular Monoamine Transporter (VMAT2), neurotransmitter transporter (AID 2283376);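 also: actives lower the bound radioligand signal below the DMSO level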
Inconclusive results are not listed. Activity calls are given as the source filed them. How the source made its calls: active means hit-call score of the fitted dose curve at least 0.9, where 1 is the maximum; inconclusive means response in the unintended direction; inactive means score below 0.9.
A correct response names exactly one class from active, inactive

N#Cc1c[nH]cc1-c1cccc2c1OC(F)(F)O2 : inactive

GET /call?item= CC(C)NC(=O)N1CC(=O)N(c2cc(Cl)cc(Cl)c2)C1=O returns the recorded outcome of this test.
inactive

GET /call?item= CCCCC(O)(Cn1cncn1)c1ccc(Cl)cc1Cl (centres undefined) returns the recorded outcome of this test.
active

GET /call?item= Cc1cc(C)nc(Nc2ccccc2)n1 returns the recorded outcome of this test.
inactive

====

Read-out: urokinase plasminogen activator (uPA), PLAU (gene 5328)
EXPERIMENTAL_DETAILS: BSK_KF3CT_uPA: BioMAP Diversity Plus: KF3CT Assay for urokinase plasminogen activator (uPA) Biomarker Activity (AID 2283075)
SETUP_CONDITIONS: primary human keratinocytes with fibroblasts; actives raise or lower the signal
The source made the active and inactive calls. The calls were made as follows: active = hit-call score of the fitted dose curve at least 0.9, where 1 is the maximum; inactive = score below 0.9.
A correct response names exactly one class from active, inactive

Answered examples (2):
Clc1cccc(C(Cl)(Cl)Cl)n1 : inactive
CCC(C)n1c(=O)[nH]c(C)c(Br)c1=O (stereo unspecified) : inactive

GET /call?item= CCOc1nc(F)cc2nc(S(=O)(=O)Nc3c(Cl)cccc3Cl)nn12 returns the recorded outcome of this test.
inactive

GET /call?item= CCN(CC)C(=O)C(C)Oc1cccc2ccccc12 (stereo unspecified) returns the recorded outcome of this test.
inactive

GET /call?item= CN=C=S returns the recorded outcome of this test.
inactive

GET /call?item= CC(C)=CC1C(C(=O)OCc2coc(Cc3ccccc3)c2)C1(C)C (stereo unspecified) returns the recorded outcome of this test.
inactive

GET /call?item= CC(C)NC(=O)N1CC(=O)N(c2cc(Cl)cc(Cl)c2)C1=O returns the recorded outcome of this test.
inactive

GET /call?item= O=P(O)(O)CCCl returns the recorded outcome of this test.
inactive

GET /call?item= O=C(Nc1ccccc1-c1ccc(Cl)cc1)c1cccnc1Cl returns the recorded outcome of this test.
inactive

GET /call?item= CCCCC(O)(Cn1cncn1)c1ccc(Cl)cc1Cl (stereo unspecified) returns the recorded outcome of this test.
inactive

GET /call?item= CCOc1nc(C(Cl)(Cl)Cl)ns1 returns the recorded outcome of this test.
inactive

GET /call?item= N#CN=C1SCCN1Cc1ccc(Cl)nc1 returns the recorded outcome of this test.
inactive

GET /call?item= CN/C(=N\[N+](=O)[O-])NCc1cnc(Cl)s1 returns the recorded outcome of this test.
inactive

GET /call?item= N#Cc1c[nH]cc1-c1cccc2c1OC(F)(F)O2 returns the recorded outcome of this test.
inactive

GET /call?item= O=c1n(Cl)c(=O)n(Cl)c(=O)n1Cl returns the recorded outcome of this test.
inactive

GET /call?item= CCCCOCN(C(=O)CCl)c1c(CC)cccc1CC returns the recorded outcome of this test.
active

GET /call?item= CS(=O)(=O)c1cc(C(F)(F)F)ccc1C(=O)c1cnoc1C1CC1 returns the recorded outcome of this test.
inactive

GET /call?item= CCNP(=S)(OC)O/C(C)=C/C(=O)OC(C)C (stereo unspecified) returns the recorded outcome of this test.
inactive

GET /call?item= Cc1cc(C)nc(Nc2ccccc2)n1 returns the recorded outcome of this test.
inactive

GET /call?item= COC(=O)c1c(C(F)F)nc(C(F)(F)F)c(C2=NCCS2)c1CC(C)C returns the recorded outcome of this test.
inactive

GET /call?item= COCc1cnc(C2=NC(C)(C(C)C)C(=O)N2)c(C(=O)O)c1 (stereo unspecified) returns the recorded outcome of this test.
inactive

GET /call?item= Cc1c(COC(=O)[C@@H]2[C@H](/C=C(\Cl)C(F)(F)F)C2(C)C)cccc1-c1ccccc1 returns the recorded outcome of this test.
inactive

GET /call?item= CNC(=O)Oc1cccc2ccccc12 returns the recorded outcome of this test.
inactive

GET /call?item= CO/N=C(/C1=NOCCO1)c1ccccc1Oc1ncnc(Oc2ccccc2Cl)c1F returns the recorded outcome of this test.
inactive

GET /call?item= CCNC(=O)NC(=O)C(C#N)=NOC returns the recorded outcome of this test.
inactive

GET /call?item= C=CCOC(=O)C(C)(C)OC(=O)c1cc(-n2c(=O)cc(C(F)(F)F)n(C)c2=O)ccc1Cl returns the recorded outcome of this test.
inactive

Taken from PubChem BioAssay (EPA / NIEHS).
